Entry source: ChEMBL document CHEMBL5634112

- test_details: Toxicity in po dosed female F1 C57Bl6 x CBA mouse assessed as lethal dose
- Format: organism-based
- condition: in vivo

molecule: COc1c(N2C[C@@H]3CCCN(Cc4cnc(C)c(O)c4C)[C@@H]3C2)c(F)cc2c(=O)c(C(=O)O)cn(C3CC3)c12.Cl.Cl
unit_abbrev: mg/kg
LD50: 541

###

In this section we review reported MIC values for a set of molecules.
- Test system: Staphylococcus aureus
- test_details: Antibacterial activity against clinical isolate Staphylococcus aureus 4721 assessed as reduction in microbial growth incubated for 24 hrs by broth microdilution method
- Type: functional
measure: MIC

molecule: COc1c(N2C[C@@H]3CCCN(Cc4nc(C)c(O)c(CO)c4CO)[C@@H]3C2)c(F)cc2c(=O)c(C(=O)O)cn(C3CC3)c12.Cl
result: 0.5 µg/mL
//
molecule: CCn1cc(C(=O)O)c(=O)c2cc(F)c(N3CCNCC3)cc21 [NORFLOXACIN]
result: 1 µg/mL
//
molecule: COc1c(N2C[C@@H]3CCCN(Cc4cnc(C)c5c4COCO5)[C@@H]3C2)c(F)cc2c(=O)c(C(=O)O)cn(C3CC3)c12.Cl
result: 0.03 µg/mL
//
molecule: CCn1cc(C(=O)O)c(=O)c2cc(F)c(N3CCN(Cc4cnc(C)c5c4COCO5)CC3)cc21.Cl
result: 1 µg/mL

###

- Test system: Enterococcus faecalis
- test_details: Antibacterial activity against clinical isolate Enterococcus faecalis 1465 assessed as reduction in microbial growth incubated for 24 hrs by broth microdilution method
- Type: functional

compound: COc1c(N2C[C@@H]3CCCN(Cc4c(CO)nc(C)c(O)c4CO)[C@@H]3C2)c(F)cc2c(=O)c(C(=O)O)cn(C3CC3)c12.Cl
unit_abbrev: µg/mL
MIC: 4
//
compound: COc1c(N2C[C@@H]3CCCN(Cc4cnc(C)c(O)c4CO)[C@@H]3C2)c(F)cc2c(=O)c(C(=O)O)cn(C3CC3)c12.Cl
unit_abbrev: µg/mL
MIC: 1
//
compound: COc1c(N2C[C@@H]3CCCN(Cc4cnc(C)c5c4COC(C)(C)O5)[C@@H]3C2)c(F)cc2c(=O)c(C(=O)O)cn(C3CC3)c12
unit_abbrev: µg/mL
MIC: 32
//
compound: CCCC1OCc2c(CN3CCC[C@H]4CN(c5c(F)cc6c(=O)c(C(=O)O)cn(C7CC7)c6c5OC)C[C@H]43)cnc(C)c2O1 (some centres not stated)
unit_abbrev: µg/mL
MIC: 64
//
compound: Cc1nc(CO)c(CN2CCN(c3cc4c(cc3F)c(=O)c(C(=O)O)cn4C3CC3)CC2)c(CO)c1O.Cl
unit_abbrev: µg/mL
MIC: 32
//
compound: Cc1ncc(CN2CCN(c3cc4c(cc3F)c(=O)c(C(=O)O)cn4C3CC3)CC2)c2c1OCOC2.Cl
unit_abbrev: µg/mL
MIC: 8
//
compound: COc1c(N2C[C@@H]3CCCN(Cc4nc(C)c(O)c(CO)c4CO)[C@@H]3C2)c(F)cc2c(=O)c(C(=O)O)cn(C3CC3)c12.Cl
unit_abbrev: µg/mL
MIC: 4

###

Consider the following compounds and their measured LD50 readings.
- test_details: Toxicity in po dosed rat assessed as lethal dose
- Assay type: organism-based
- condition: in vivo

molecule: Cc1ncc(CN2CCN(c3cc4c(cc3F)c(=O)c(C(=O)O)cn4C3CC3)CC2)c(CO)c1O.Cl
LD50: > 2000 mg/kg

molecule: COc1c(N2C[C@@H]3CCCN(Cc4cnc(C)c(O)c4C)[C@@H]3C2)c(F)cc2c(=O)c(C(=O)O)cn(C3CC3)c12.Cl.Cl
LD50: > 2000 mg/kg

###

- Test system: Salmonella typhimurium
- test_details: Antibacterial activity against Salmonella typhimurium TA100 assessed as reduction in microbial growth incubated for 24 hrs by broth microdilution method
- Assay type: functional, Salmonella enterica subsp. enterica serovar Typhimurium
- condition: Salmonella enterica
# MIC annotations
measure: MIC (µg/mL)

compound: CCn1cc(C(=O)O)c(=O)c2cc(F)c(N3CCN(Cc4cnc(C)c(O)c4CO)C(C)C3)c(F)c21.Cl (configuration not stated)
measurement_target: Salmonella typhimurium
unit_abbrev: µg/mL
quantitative_readout: 2
--
compound: CCCCCCCCC1OCc2c(CN3CCN(c4cc5c(cc4F)c(=O)c(C(=O)O)cn5C4CC4)CC3)cnc(C)c2O1 (configuration not stated)
measurement_target: Salmonella typhimurium
unit_abbrev: µg/mL
quantitative_readout: 4
--
compound: COc1c(N2C[C@@H]3CCCN(Cc4nc(C)c5c(c4CO)COC(C)(C)O5)[C@@H]3C2)c(F)cc2c(=O)c(C(=O)O)cn(C3CC3)c12
measurement_target: Salmonella typhimurium
unit_abbrev: µg/mL
quantitative_readout: 2
--
compound: CCCCCCCCC1OCc2c(CN3CCC[C@H]4CN(c5c(F)cc6c(=O)c(C(=O)O)cn(C7CC7)c6c5OC)C[C@H]43)cnc(C)c2O1 (some centres not stated)
measurement_target: Salmonella typhimurium
unit_abbrev: µg/mL
quantitative_readout: 16
--
compound: CCCC1OCc2c(CN3CCN(c4c(F)cc5c(=O)c(C(=O)O)cn(CC)c5c4F)CC3C)cnc(C)c2O1 (configuration not stated)
measurement_target: Salmonella typhimurium
unit_abbrev: µg/mL
quantitative_readout: 2
--
compound: CCn1cc(C(=O)O)c(=O)c2cc(F)c(N3CCN(Cc4cnc(C)c(O)c4C)C(C)C3)c(F)c21.Cl (configuration not stated)
measurement_target: Salmonella typhimurium
unit_abbrev: µg/mL
quantitative_readout: 2
--
compound: CCn1cc(C(=O)O)c(=O)c2cc(F)c(N3CCN(Cc4cnc(C)c5c4COC(C)O5)CC3)cc21 (configuration not stated)
measurement_target: Salmonella typhimurium
unit_abbrev: µg/mL
quantitative_readout: 16

###

Below is a list of entries, each paired with its recorded MIC value.
- System: Salmonella typhimurium
- test_details: Antibacterial activity against Salmonella typhimurium TA100 assessed as reduction in microbial growth incubated for 24 hrs by broth microdilution method
- Assay type: functional, Salmonella enterica subsp. enterica serovar Typhimurium
- condition: Salmonella enterica
measure: MIC (µg/mL)

compound: CCn1cc(C(=O)O)c(=O)c2cc(F)c(N3CCNCC3)cc21 [NORFLOXACIN]
measurement_target: Salmonella typhimurium
quantitative_readout: 1
//
compound: Cc1nc(CO)c(CN2CCN(c3cc4c(cc3F)c(=O)c(C(=O)O)cn4C3CC3)CC2)c(CO)c1O.Cl
measurement_target: Salmonella typhimurium
quantitative_readout: 4
//
compound: Cc1ncc(CN2CCN(c3cc4c(cc3F)c(=O)c(C(=O)O)cn4C3CC3)CC2)c(CO)c1O.Cl
measurement_target: Salmonella typhimurium
quantitative_readout: 2
//
compound: CCn1cc(C(=O)O)c(=O)c2cc(F)c(N3CCNC(C)C3)c(F)c21 (stereo not drawn) [LOMEFLOXACIN]
measurement_target: Salmonella typhimurium
quantitative_readout: 1
//
compound: CCn1cc(C(=O)O)c(=O)c2cc(F)c(N3CCN(Cc4cnc(C)c5c4COCO5)C(C)C3)c(F)c21.Cl (stereo not drawn)
measurement_target: Salmonella typhimurium
quantitative_readout: 4
//
compound: CCn1cc(C(=O)O)c(=O)c2cc(F)c(N3CCN(Cc4cnc(C)c5c4COCO5)CC3)cc21.Cl
measurement_target: Salmonella typhimurium
quantitative_readout: 2
//
compound: CCn1cc(C(=O)O)c(=O)c2cc(F)c(N3CCN(Cc4nc(C)c5c(c4CO)COC(C)(C)O5)C(C)C3)c(F)c21 (stereo not drawn)
measurement_target: Salmonella typhimurium
quantitative_readout: 2
//
compound: CCn1cc(C(=O)O)c(=O)c2cc(F)c(N3CCN(Cc4nc(C)c(O)c(CO)c4CO)CC3)cc21.Cl
measurement_target: Salmonella typhimurium
quantitative_readout: 16

###

- measurement_target: Topoisomerase IV (Staphylococcus aureus, UniProt P0C1S7+P0C1U9)
- test_details: Inhibition of Staphylococcus aureus topoisomerase-IV assessed as reduction in decatenation using kinetoplast DNA as substrate incubated for 30 mins by ethidium bromide staining based agarose gel electrophoresis method
measure: IC50 (µM)

compound: Cc1ncc(CN2CCN(c3cc4c(cc3F)c(=O)c(C(=O)O)cn4C3CC3)CC2)c(CO)c1O.Cl
quantitative_readout: 397
--
compound: COc1c(N2C[C@@H]3CCCN(Cc4cnc(C)c(O)c4C)[C@@H]3C2)c(F)cc2c(=O)c(C(=O)O)cn(C3CC3)c12.Cl.Cl
quantitative_readout: 26.2
--
compound: COc1c(N2C[C@@H]3CCCN[C@@H]3C2)c(F)cc2c(=O)c(C(=O)O)cn(C3CC3)c12 [MOXIFLOXACIN]
quantitative_readout: 29.9

###

Listed here are compounds together with their documented log10 of CC50 at 72 h.
- test_details: Cytotoxicity against human HSF assessed as reduction in cell viability incubated for 72 hrs by MTT assay
- Assay type: toxicity, cell-based
- condition: HSF cells
measure: log10 of CC50 at 72 h (log10 of the value in µg/mL)

compound: COc1c(N2C[C@@H]3CCCN(Cc4nc(C)c5c(c4CO)COC(C)(C)O5)[C@@H]3C2)c(F)cc2c(=O)c(C(=O)O)cn(C3CC3)c12
log10 of CC50 at 72 h: 1.05
--
compound: COc1c(N2C[C@@H]3CCCN(Cc4cnc(C)c5c4COC(C)(C)O5)[C@@H]3C2)c(F)cc2c(=O)c(C(=O)O)cn(C3CC3)c12
log10 of CC50 at 72 h: 0.54
--
compound: CCn1cc(C(=O)O)c(=O)c2cc(F)c(N3CCNC(C)C3)c(F)c21 (configuration not stated)
log10 of CC50 at 72 h: 1.66
--
compound: O=C(O)c1cn(C2CC2)c2cc(N3CCNCC3)c(F)cc2c1=O
log10 of CC50 at 72 h: 1.72
--
compound: Cc1ncc(CN2CCN(c3cc4c(cc3F)c(=O)c(C(=O)O)cn4C3CC3)CC2)c(CO)c1O.Cl
log10 of CC50 at 72 h: 1.54
--
compound: COc1c(N2C[C@@H]3CCCN[C@@H]3C2)c(F)cc2c(=O)c(C(=O)O)cn(C3CC3)c12
log10 of CC50 at 72 h: 1.56
--
compound: COc1c(N2C[C@@H]3CCCN(Cc4nc(C)c(O)c(CO)c4CO)[C@@H]3C2)c(F)cc2c(=O)c(C(=O)O)cn(C3CC3)c12.Cl
log10 of CC50 at 72 h: 1.53
